// provenance: PubChem BioAssay (NCI)

system: NCI-H522 lung; assay: NCI tumour cell line growth inhibition, 48 h
recorded endpoint: TGI (µM)
Numeric answer only, unit µM assumed.

Study these solved cases before continuing.
Oc1ccc(-c2nc(-c3cccnc3)c(-c3ccc(Cl)cc3)[nH]2)cc1 ... 23.8
COC1=C(C)C(=O)c2c(c(COC(N)=O)c3n2CC2C3N2C)C1=O (stereo not given) ... 0.0304
COc1cc2nc3cc([N+](=O)[O-])ccc3c(NCCCNCCO)c2cc1OC ... 0.213
O=C(O)c1ccc([N+](=O)[O-])c2cc3cnccc3nc12 ... 32.4
CCOCc1nc2c(OC)cc(-c3nc4ccc(N5CCN(C)CC5)cc4[nH]3)c(OC)c2[nH]1 ... 58.2

Exercise: For CC1CC[C@]2(C(=O)O)CCC3(C)C(=CC(=O)C4[C@@]5(C)CCC(=O)C(C)(C)C5CC[C@]43C)[C@@H]2[C@H]1C (stereo not given in full) , write its TGI.
Key: 71.3

Exercise: State, in one line, measured TGI of COc1ccccc1/C=C1\SC(=S)N(/C=C2\C(=O)Oc3ccccc3C2=O)C1=O
Key: 95.7

Exercise: Recall and state the measured TGI for CC1OC(OC2C(O[C@H]3CC[C@@]4(C)C(=CC[C@H]5[C@@H]6C[C@@H]7O[C@]8(CC[C@@H](CO)CO8)[C@@H](C)[C@@H]7[C@@]6(C)CC[C@@H]54)C3)OC(CO)C(O)C2OC2OC(CO)C(O)C(O)C2O)C(O)C(O)C1O (stereo not given in full) .
Key: 3.19

====

Listed molecules paired with reported TGI
tested on: MCF7 breast; test: NCI tumour cell line growth inhibition, 48 h

Exercise: Under MCF7 breast, report TGI for CCCCCCCC/C=C/CCCCCCCC(=O)OC[C@H]1O[C@@H](n2ccc(N)nc2=O)C(F)(F)[C@@H]1O
Key: > 100 µM

====

test system: OVCAR-8 ovarian; assay: NCI tumour cell line growth inhibition, 48 h
We begin with a simple list: items and their reported TGI.

Exercise: State the measured TGI (OVCAR-8 ovarian) of OC[C@H]1CCCC1O (stereo not given in full)
Key: > 100 µM

Exercise: Tell me its TGI on OVCAR-8 ovarian: COC1(OC)C2(Cl)C(Cl)=C(Cl)C1(Cl)C1C=CC=CC12 (stereo not given)
Key: > 100 µM

Exercise: Provide OVCAR-8 ovarian TGI reading for N#CCN1C(=O)c2cccc3cc([N+](=O)[O-])cc(c23)C1=O .
Key: > 100 µM

Exercise: Tell me TGI of CC1=NNC(N)=N/C1=C\C(Sc1ccc(Cl)cc1)c1ccc([N+](=O)[O-])cc1 (stereo not given) when tested on OVCAR-8 ovarian.
Key: > 100 µM

Exercise: Lab note: OVCAR-8 ovarian assay, enter TGI for COC(=O)[C@H](C)NC(=O)NC(=O)NC(=O)CI here
Key: 33.9 µM

====

Catalogue of compounds with associated TGI
test system: COLO 205 colon; assay: NCI tumour cell line growth inhibition, 48 h

# example entries with known answers
CS/C(N)=N\NC(=O)CCC(=O)Nc1ccccc1C(F)(F)F ... > 100 µM
CC(=O)[O-].CCN(CC)c1ccc(C=NCCN=Cc2ccc(N(CC)CC)cc2[O-])c([O-])c1.[Mn+3] ... 32.8 µM
COc1ccccc1/C=C1\SC(=S)N(/C=C2\C(=O)Oc3ccccc3C2=O)C1=O ... 50.4 µM

Now turn to the next compound.
Exercise: Fill in: TGI on COLO 205 colon, entry O=C1CSC(c2cccc(Oc3ccccc3)c2)N1c1ccc(Cl)cc1 (centres undefined)
Key: 35.5 µM
